target: furin, P09958; assay: furin cleavage Z-score vs untreated control; higher = more cleavage, active = 3.5 or more, inactive = 1 or less, 8 variable residues between constant flanks; conditions: 7.5 min;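 note: purified furin at 1:10 enzyme:substrate in 50 mM HEPES pH 7.5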
Sequence (P09958 whole entry): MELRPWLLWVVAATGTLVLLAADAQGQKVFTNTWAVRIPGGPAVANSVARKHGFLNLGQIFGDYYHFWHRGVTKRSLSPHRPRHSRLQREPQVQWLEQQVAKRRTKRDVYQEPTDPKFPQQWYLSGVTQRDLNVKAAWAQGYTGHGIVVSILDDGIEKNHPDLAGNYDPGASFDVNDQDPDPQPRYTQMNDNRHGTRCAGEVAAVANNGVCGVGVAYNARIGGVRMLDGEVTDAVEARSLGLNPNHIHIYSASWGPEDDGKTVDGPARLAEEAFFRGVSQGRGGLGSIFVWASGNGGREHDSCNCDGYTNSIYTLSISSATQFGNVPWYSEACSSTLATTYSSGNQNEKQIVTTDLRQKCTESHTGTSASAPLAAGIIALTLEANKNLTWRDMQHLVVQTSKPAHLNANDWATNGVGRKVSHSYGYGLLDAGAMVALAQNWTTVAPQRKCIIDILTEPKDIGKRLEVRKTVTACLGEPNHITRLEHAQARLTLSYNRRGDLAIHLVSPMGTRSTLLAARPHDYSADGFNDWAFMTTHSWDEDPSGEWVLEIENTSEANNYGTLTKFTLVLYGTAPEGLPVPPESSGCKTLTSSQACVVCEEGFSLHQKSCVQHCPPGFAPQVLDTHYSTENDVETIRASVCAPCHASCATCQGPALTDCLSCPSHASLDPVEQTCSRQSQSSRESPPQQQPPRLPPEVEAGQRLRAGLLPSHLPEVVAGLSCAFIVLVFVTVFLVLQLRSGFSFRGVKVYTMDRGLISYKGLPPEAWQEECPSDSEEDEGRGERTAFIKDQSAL
The other results are listed elsewhere or left out. The hit rate among all sequences tested is not known here.
In this section, each of the sequences is paired with its reported furin cleavage Z-score.
// response body must contain only the number

- CADAELIEANAGNASASA [HC1272]: 1.56
- CASIPCSAHLAGNASASA [HC2484]: 0.328
- CACLEVVTSTAGNASASA [HC2280]: -1.07

Recorded furin cleavage Z-score (sequence CACWRRMKRSAGNASASA [FS-1113] ): 9.77
